Target: GSK3β (h) (Homo sapiens, UniProt P49841)
Sequence (P49841 whole entry): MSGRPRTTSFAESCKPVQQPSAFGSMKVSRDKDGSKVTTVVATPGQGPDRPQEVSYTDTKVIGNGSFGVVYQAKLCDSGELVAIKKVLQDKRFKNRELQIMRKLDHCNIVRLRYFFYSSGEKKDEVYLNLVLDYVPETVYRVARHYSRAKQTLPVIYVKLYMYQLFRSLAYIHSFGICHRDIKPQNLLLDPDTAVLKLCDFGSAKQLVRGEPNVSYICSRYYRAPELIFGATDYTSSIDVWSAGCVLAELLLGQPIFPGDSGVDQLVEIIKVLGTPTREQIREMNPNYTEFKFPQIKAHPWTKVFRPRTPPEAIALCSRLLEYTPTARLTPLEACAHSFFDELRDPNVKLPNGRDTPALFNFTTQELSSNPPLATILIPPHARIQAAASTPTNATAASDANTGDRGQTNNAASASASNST
Test Summary: GSK-3β human kinase assay (SPA)
Type: biochemical
Lab note: anything with GSK3B pIC50 below 7 is marked yes; values at 7 or higher are marked no.

Consider the worked cases shown below.
Molecule	Answer Label
CN1CCN(c2ccc3cc2OCCCCC(=O)N(C)CCCNc2ncnc4c2C(=CN3)C(=O)N4)CC1 (mixture of isomers)	no
COc1ccc2cc1OCCCCC(=O)NCCN(C)c1ncnc3c1C(=CN2)C(=O)N3 (mixture of isomers)	yes
CN1CCCNc2ncnc3c2C(=CNc2ccc(N4CCOCC4)c(c2)OCCCC1=O)C(=O)N3 (mixture of isomers)	no
COc1ccc2cc1OCCCCC(=O)N(C)CCCNc1ncnc3c1C(=CN2)C(=O)N3 (mixture of isomers)	no

Data request: # strict comparison: is reported GSK3B pIC50 < 7? input = CN1CCN(c2ccc3cc2OCCCCCC(=O)N(C)CCCNc2ncnc4c2C(=CN3)C(=O)N4)CC1 (mixture of isomers)
Data returned: yes

Data request: Can you check COc1ccc2cc1CN(C)CCCCCC(=O)N(C)CCCN(C)c1ncnc3c1C(=CN2)C(=O)N3 (mixture of isomers) next?
Data returned: yes

----------
Target: UniProt Q96GD4
Test Summary: Aurora-B human kinase assay (SPA)
Assay type: biochemical
Readout: AuroraB pIC50

Consider the reported AuroraB pIC50 for these compounds:
Compound	AuroraB pIC50
COc1ccc2cc1OCCCC(=O)N(C(C)C)CCCNc1ncnc3c1C(=CN2)C(=O)N3 (mixture of isomers)	7.25
COc1ccc2cc1CN(C)CCCCCC(=O)N(C)CCCN(C)c1ncnc3c1C(=CN2)C(=O)N3 (mixture of isomers)	<5
CN1CCN(c2ccc3cc2CN(C)CCCCCC(=O)N(C)CCCNc2ncnc4c2C(=CN3)C(=O)N4)CC1 (mixture of isomers)	<5

Data request: Fill in the blank: the reported AuroraB pIC50 of CN1CCN(c2ccc3cc2OCCCCCC(=O)N(C)CCCNc2ncnc4c2C(=CN3)C(=O)N4)CC1 (mixture of isomers) is ____.
Data returned: <5

Data request: Can you check COc1ccc2cc1OCCCCC(=O)NCCN(C)c1ncnc3c1C(=CN2)C(=O)N3 (mixture of isomers) next?
Data returned: <5

Data request: Can you check CN1CCCCCC(=O)N(C)CCCNc2ncnc3c2C(=CNc2ccc(N4CCOCC4)c(c2)C1)C(=O)N3 (mixture of isomers) next?
Data returned: <5

----------
// IC50 lookup, one value per entry
Target: AuroraB (h) (Homo sapiens)
Sequence (Q96GD4 whole entry): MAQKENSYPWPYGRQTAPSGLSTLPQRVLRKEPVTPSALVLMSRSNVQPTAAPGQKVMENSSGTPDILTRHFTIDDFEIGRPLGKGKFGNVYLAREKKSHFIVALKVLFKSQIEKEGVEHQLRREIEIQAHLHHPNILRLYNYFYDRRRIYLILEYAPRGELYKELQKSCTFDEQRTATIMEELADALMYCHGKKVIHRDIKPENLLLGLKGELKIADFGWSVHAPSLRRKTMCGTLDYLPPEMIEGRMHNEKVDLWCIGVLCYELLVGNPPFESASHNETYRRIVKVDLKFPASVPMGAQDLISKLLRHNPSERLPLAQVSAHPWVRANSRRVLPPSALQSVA
Test Summary: Aurora-B human kinase assay (SPA)
Assay type: biochemical
Condition: read-out: AuroraB pIC50 (converted)

Consider the reported IC50 for these compounds:
Compound	Target	IC50
COCCN1CCCOc2cc(ccc2Cl)N/C=C2\C(=O)Nc3ncnc(c32)NCCN(C)C(=O)C1 [Compound 174]	AuroraB (h) (Homo sapiens)	> 10 µM
CN1CCNC(=O)CCCCCOc2cc(ccc2Cl)N/C=C2\C(=O)Nc3ncnc1c32 [Compound 52]	AuroraB (h) (Homo sapiens)	6.61 µM
COc1ccc2cc1CN(C)CCCCC(=O)NCCN(C)c1ncnc3c1/C(=C/N2)C(=O)N3 [Compound 51]	AuroraB (h) (Homo sapiens)	> 10 µM

Data request: Fill in the blank: the reported IC50 of CN1CCNC(=O)CCCOc2cccc(c2)N/C=C2\C(=O)Nc3ncnc(c32)NCC1 [Compound 159] is ____.
Data returned: > 10 µM

Data request: Can you check O=C1Nc2ncnc3c2C1=CNc1ccc(c(Cl)c1)OCCCCCC(=O)N1CCN3CC1 (mixture of isomers) [Compound 14] next?
Data returned: > 10 µM

Data request: Can you check CN1CCNC(=O)CCCCCCOc2cccc(c2)N/C=C2\C(=O)Nc3ncnc1c32 [Compound 36] next?
Data returned: > 10 µM

Data request: Can you check CN1CC(=O)N(C)CCCCNc2ncnc3c2/C(=C/Nc2cccc(c2)C1)C(=O)N3 [Compound 154] next?
Data returned: > 10 µM
